measured-metric: melting point

# annotated cases, reported melting point shown
compound	melting point
Cc1ccc(NS(=O)(=O)c2cc(C(=O)O)ccc2C)cc1	55 to 57 °C
NCCC(O)(c1ccccc1)C(F)(F)F (stereo not drawn)	110 to 112 °C
Nc1ncncc1-c1ccc(Cl)cc1	195 to 197 °C
CC(C)Cc1ccc(C(=O)O)cc1	144 to 146 °C
COc1ccc(CCCCCC(=O)O)cc1	46 to 48 °C
CCC1CCc2[nH]c3ccc(C)cc3c2C1 (stereo not drawn)	59 to 61 °C
Nc1nnc(CCc2ccccc2)o1	195 to 197 °C
Cc1cc(C)c(C(=O)CCl)c(C)c1	68 to 70 °C

Query block: Please look up its melting point: Cc1ccc(N)cc1S(=O)(=O)N1CCCCCC1
Result block: 44 to 46 °C

Query block: Further, for O=C(O)COc1cccc(N2CCCC2=O)c1 ?
Result block: 169 to 171 °C

###

measured-metric: melting point

molecule	measured-metric	observed-measurement
NC(=S)N1CCN(c2ccccn2)CC1	melting point	164 to 166 °C

Here is another molecule to look at.
Query block: Please look up its melting point: Cc1[nH]c2ccc(Cl)cc2c1C(=O)O
Result block: 193 to 195 °C

###

The molecules listed here are annotated with their melting point.

# annotated cases, reported melting point shown
molecule	melting point
N#Cc1ccc(NN)cc1C(F)(F)F	119 to 121 °C
Cc1cc(C(=O)O)c2c(C)nn(-c3ccccc3)c2n1	195 to 197 °C

Query block: Please look up its melting point: O=C(Cn1c(Cl)nc2ccccc21)c1ccccc1
Result block: 168 to 170 °C

Query block: Further, for O=C(O)CCCCOc1ccc(Oc2ccccc2)cc1 ?
Result block: 53 to 55 °C

Query block: Further, for O=C(O)Cc1cc(=O)n(-c2ccccn2)[nH]1 ?
Result block: 98 to 100 °C

Query block: Further, for CCOc1cc(C=O)ccc1OC(F)F ?
Result block: 30 to 32 °C

Query block: Further, for CCc1ccc(S(=O)(=O)Cl)cc1C(=O)O ?
Result block: 133 to 135 °C

Query block: Further, for O=C(CC1CCCCC1)Nc1cccc2c1CCCN2 ?
Result block: 192 to 194 °C

Query block: Further, for OC1CCc2ccc(F)cc21 (stereo not drawn) ?
Result block: 41 to 43 °C

Query block: Further, for NC(=S)Cc1cn2ccccc2n1 ?
Result block: 144 to 146 °C

Query block: Further, for CC(=O)c1c(C)nn(CCS(C)(=O)=O)c1C ?
Result block: 139 to 141 °C

Query block: Further, for COC(=O)c1cccc(N)c1O ?
Result block: 84 to 86 °C

Query block: Further, for O=C(O)c1nnn(-c2cccc(F)c2)c1C1CC1 ?
Result block: 149 to 151 °C

Query block: Further, for O=C(O)C(CS(=O)(=O)c1ccccc1)N1CCOCC1 (stereo not drawn) ?
Result block: 190 to 192 °C

Query block: Further, for CCOC(=O)C1CCC(=O)NC1 (stereo not drawn) ?
Result block: 66 to 68 °C

Query block: Further, for COC(=O)c1ccc2ccccc2c1O ?
Result block: 75 to 77 °C

Query block: Further, for O=C(O)c1noc(-c2cc(Cl)ccc2F)n1 ?
Result block: 113 to 115 °C

Query block: Further, for O=C(O)c1cc(-c2cccc(Cl)c2)nc2nc(N3CCCCC3)sc12 ?
Result block: 199 to 203 °C
